Molecular target: benzodiazepine receptor
Assay: benzodiazepine receptor affinity, [^3 H] flunitrazepam radio receptor binding (modified Squires and Braestrup) on rat forebrain membrane preparations
Conditions: 0.6 nM [^3 H] flunitrazepam, read-out: IC50, inhibition of the specific binding of [^3 H] flunitrazepam by 50%
measured-metric: log10 IC50 (log10 of the value in nM)
Recall that a logarithmic scale is used here: each number is log10 of IC50 in nM.

// returns reported log10 IC50 for input COc1cc2nc(C(=O)c3ccccc3)cn2c2ccc(Cl)cc12
2.78

###

Molecular target: benzodiazepine receptor
Assay: benzodiazepine receptor affinity, [^3 H] flunitrazepam radio receptor binding (modified Squires and Braestrup) on rat forebrain membrane preparations
Conditions: 0.6 nM [^3 H] flunitrazepam, read-out: IC50, inhibition of the specific binding of [^3 H] flunitrazepam by 50%
measured-metric: IC50 (nM)
Hi! Could you send only the number? It should be in nM, unit omitted.

// returns reported IC50 for input CCCCOc1cc2nc(C(=O)c3ccccc3)cn2c2ccccc12
1000
